Biological target: human Tissue Factor (hTF) (human, UniProt P13726 33-295)
Assay: cell-based or functional assay
Reported Metric: IC50, cell viability of MDA-MB-231 cells, Primary ADC, Continuous (FIG. 22D)

## Input IC50, cell viability of MDA-MB-231 cells, Primary ADC, Continuous (FIG. 22D) for anti-TF antibody 43D7 conjugated to MC-vc-PAB-MMAE (antibody, IgG1, V domains shown, MC-vc-PAB-MMAE on cysteines of the partially reduced antibody (chain and positions not stated), DAR 3-4) VH: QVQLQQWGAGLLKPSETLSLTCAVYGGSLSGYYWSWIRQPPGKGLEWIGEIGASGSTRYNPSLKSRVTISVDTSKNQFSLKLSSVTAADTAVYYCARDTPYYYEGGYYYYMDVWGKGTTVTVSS VL: EIVLTQSPGTLSLSPGERATLSCRASDSVDSSYLAWYQQKPGQAPRLLIYGAFSRANGIPDRFSGSGSGTDFTLTISRLEPEDFAVYYCQQAGVVPYTFGGGTKVEIK ?
## Output 140 pM
